Data provenance is the supplement of paper PMC7125110.

B1: glmS ribozyme (parent)
chain: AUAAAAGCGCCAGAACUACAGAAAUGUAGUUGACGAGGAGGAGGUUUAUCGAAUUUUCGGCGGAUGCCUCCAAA

Variants of: B1
Method summary: self-cleavage kobs at 640 uM GlcN6P; higher = faster cleavage; RNA array
Condition set: with glucosamine-6-phosphate
Variants at the floor of the assay were thinned out.
Lab note: compare self-cleavage kobs at 640 uM GlcN6P against 0.0001 s⁻¹. Equal or greater, write 1.0. Smaller, write 0.0.

Mut: A53U C58G
Class label: 0.0

Mut: A15G U46A
Class label: 1.0

Mut: A33C G37A G63C
Class label: 0.0

Mut: G32U G59A A64U C67U
Class label: 0.0

Mut: G32U A52C
Class label: 0.0

Mut: U47A U54C
Class label: 1.0

Mut: G43A G44C C67A C70A
Class label: 0.0

Mut: A36U G41U U55A
Class label: 0.0

Mut: C8U A15C G32U
Class label: 0.0

Mut: G13A C58A
Class label: 1.0

Mut: U31A U45G
Class label: 1.0

Mut: A14G G35U G37C U47C
Class label: 0.0

Mut: U45A U56C
Class label: 1.0

Mut: G9U C11A
Class label: 0.0

Mut: C16A U54G
Class label: 1.0

Mut: C8G A36G A39U G43U
Class label: 0.0

Mut: C16A U54A C67A
Class label: 0.0

Mut: G32C A36U
Class label: 0.0

Mut: A14U A15G A64C
Class label: 0.0

Mut: A42U U46C
Class label: 0.0

Mut: C8G G43A C67A
Class label: 0.0

Mut: G38U U54C
Class label: 0.0

Mut: A39U G66A
Class label: 1.0

Mut: G29C A36C C61A
Class label: 0.0

Mut: U47A G63A
Class label: 0.0

Mut: U30C C70A
Class label: 0.0

Mut: A14G G29U U30G A33C C61G G66U
Class label: 0.0

Mut: A48C A53U
Class label: 0.0

Mut: C11U G41A G60U G63U C70U
Class label: 0.0

Mut: G9U A14C A53U G62A C67G
Class label: 0.0

Mut: U31A C58G A64C C68U
Class label: 1.0

Mut: G13C G37A G62A
Class label: 0.0

Mut: G35C G59A
Class label: 0.0

Mut: A12C A39G
Class label: 1.0

Mut: C16U C71G
Class label: 1.0

Mut: C8U G32A U45A U56C
Class label: 0.0

Mut: U30A A39C U55C
Class label: 1.0

Mut: U45C A53U C67G
Class label: 1.0

Mut: U30C C71U
Class label: 0.0

Mut: A6G U57G
Class label: 0.0

Mut: C8A C11U G60C C67A
Class label: 0.0

Mut: A15G A64U
Class label: 0.0

Mut: C8G G9U
Class label: 0.0

Mut: G35U G51A
Class label: 0.0

Mut: A39C U45A
Class label: 1.0

Mut: A42G A53G
Class label: 1.0

Mut: C34U G59C
Class label: 0.0

Mut: A6G C11A G59U G60C
Class label: 0.0

Mut: G29A C50G C71A
Class label: 1.0

Mut: U54A U65A C68G
Class label: 0.0

Mut: G41U U45C U54G C67U C71G
Class label: 0.0

Mut: A48G A53G C67G
Class label: 0.0

Mut: U54G U57A
Class label: 0.0

Mut: A14U G29C A48G U65A
Class label: 0.0

Mut: A33U G35A
Class label: 0.0

Mut: G41A U46G C70U
Class label: 1.0

Mut: G9U C61A C70G
Class label: 0.0

Mut: A42G U49C
Class label: 0.0

Mut: G9A A15U C16A G63C C68U
Class label: 0.0

Mut: G13A A14G G29C C50G
Class label: 1.0

Mut: U30A U56G
Class label: 1.0

Mut: C10U U49A U55A
Class label: 0.0

Mut: A42C C61U C68G C71U
Class label: 0.0

Mut: G7U U47G A53U
Class label: 0.0

Mut: A14G A42U
Class label: 1.0

Mut: G41U U55A
Class label: 1.0

Mut: G37U U65G
Class label: 0.0

Mut: C11U U54C U56C
Class label: 0.0

Mut: G43A C70G
Class label: 0.0

Mut: U30A A48C C58U G59C
Class label: 0.0

Mut: U45A U54G
Class label: 1.0

Mut: G41C C50G
Class label: 0.0

Mut: G29U A39G
Class label: 1.0
